# tested.target: Voltage-gated potassium channel subunit beta-2 (Rattus norvegicus) (UniProt P62483)
# Sequence (P62483 whole entry, looked up): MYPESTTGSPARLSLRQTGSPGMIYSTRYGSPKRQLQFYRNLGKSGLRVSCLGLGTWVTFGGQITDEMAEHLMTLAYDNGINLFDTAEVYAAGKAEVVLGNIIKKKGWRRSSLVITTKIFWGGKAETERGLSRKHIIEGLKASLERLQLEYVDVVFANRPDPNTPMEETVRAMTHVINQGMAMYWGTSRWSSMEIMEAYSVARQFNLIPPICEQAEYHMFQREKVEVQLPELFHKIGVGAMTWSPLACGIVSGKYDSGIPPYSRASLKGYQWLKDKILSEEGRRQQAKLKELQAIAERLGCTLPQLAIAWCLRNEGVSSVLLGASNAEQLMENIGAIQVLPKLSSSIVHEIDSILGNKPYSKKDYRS
# assay.details: enhancers of rat Kvbeta2 NADPH turnover – biochemical, NADPH fluorescence, primary screen (AID 623);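 also: fluorescence intensity change per second fitted from 20 to 320 s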
# condition.info: Recombinant KvBeta, NADPH fluorescence decrease slope, 10 min; at 10 µM; hits give low values
result.type: NADPH fluorescence slope
Give the value as a plain number.

Examples from the recorded data:
INSERT INTO measurements (molecule, endpoint_value) VALUES
  ('O=C(Nc1ccc(N2CCCC2)cc1)c1cccc(F)c1', '7e-06'),
  ('Cn1c(CCNC(=O)c2ccco2)nc2cc(NC(=O)C3CCCCC3)ccc21', -0.000205),
  ('CCOC(=O)C1=C(C)N=c2s/c(=C\c3cccn3C)c(=O)n2C1c1cccc(OC)c1OC (stereo not drawn)', '-8.6e-05'),
  ('Cc1cccc(N2C(=O)CC(N(C(=O)c3ccco3)c3cccc(C)c3)C2=O)c1 (stereo not drawn)', '-5.1e-05');

Kindly note the recorded NADPH fluorescence slope for COc1ccc(CCn2c(NCCCN3CCOCC3)nc3c2c(=O)[nH]c(=O)n3C)cc1 , which is 2.7e-05

Kindly note the recorded NADPH fluorescence slope for O=C(NCC1COc2ccccc2O1)C1CCCN(S(=O)(=O)c2cnc[nH]2)C1 (stereo not drawn) , which is -2e-05

Kindly note the recorded NADPH fluorescence slope for Cc1cc(C)n(S(=O)(=O)c2cc(C(=O)O)c(Cl)cc2Cl)n1 , which is 4.4e-06

Kindly note the recorded NADPH fluorescence slope for CCOC(=O)c1c(NC(=O)c2nn(CC)cc2Br)c(C#N)cn1-c1ccccc1 , which is -2.9e-05

Kindly note the recorded NADPH fluorescence slope for CCCC(C)c1nnc(NC(=O)C2CCCO2)s1 (stereo not drawn) , which is -4e-05

Kindly note the recorded NADPH fluorescence slope for O=C(O)c1cc(Cl)c(Cl)cc1C(=O)N1CCCC1 , which is 4.1e-07

Kindly note the recorded NADPH fluorescence slope for O=C(O)C1CCCCC1C(=O)NCCc1ccccc1 (stereo not drawn) , which is -5.8e-05

Kindly note the recorded NADPH fluorescence slope for CC(C)CNS(=O)(=O)c1ccc(CCC(=O)N2CCOCC2)cc1 , which is -4.8e-05

Kindly note the recorded NADPH fluorescence slope for CCc1ccc(N2CC34C=CC(O3)C(C(=O)OC)C4C2=O)cc1 (stereo not drawn) , which is 6.6e-06

* * *

# assay.details: blockers of RIG-like receptor reporter activation – cell-based, Sendai virus stimulus, luciferase, 10K MLSCN set, TLR/RLR signaling modifier project, primary screen (AID 602276);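 also: firefly luciferase from ISG56 promoter only with Renilla not read in this screen; 0% = Sendai virus plus DMSO and 100% = medium plus DMSO without virus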
# condition.info: HEK293 RL24 IRF3 luciferase reporter, at 10 µM, hits give high values
Each entry gets rule not met if its inhibition stays under 10%, and rule met if its inhibition is 10% or above.

Here are 4 compounds together with their reported answers.
INSERT INTO measurements (compound, cat) VALUES
  ('C[C@@H]1C[C@H](O)c2cc(Cl)ccc2N1', 'rule met'),
  ('Cc1noc(/C=C/N(C)C)c1S(=O)(=O)N1CCc2ccccc21', 'rule not met'),
  ('CC(=O)NC(CCS(C)(=O)=O)C(=O)Nc1cc(C)on1 (stereo unspecified)', 'rule met'),
  ('COc1ccccc1NC(=O)N(C1CCCC1)C1CCN(C(C)=O)CC1', 'rule met');

Ask | # check: inhibition of Cc1cnc(C(=O)OCC(=O)Nc2ccc(Oc3ccccc3)cc2)cn1 is greater than or equal to 10%
Reply | rule not met

Ask | # check: inhibition of COc1ccc(CN(C(=O)CSc2nnc(-c3ccccc3F)o2)c2ccc(F)cc2)cc1 is greater than or equal to 10%
Reply | rule not met
